Just for reference, PubChem BioAssay AID1963833 is where these values come from.

This section presents compounds with their documented viability, T/C values.
- Test system: 883617-216-R-J1-PDC complex spheroid viability
- procedure.summary: Anticancer human tumor 883617-216-R-J1-PDC patient-derived bladder carcinoma cell line growth inhibition [POLQ]
- applied.conditions: second compound 3.16 µM; first compound 0.316 µM; hits give low values

1. COc1cccc(OCCCN)c1-c1cc(Nc2cnc(C#N)cn2)n[nH]1 + Cc1cccc(N(C)C(=O)C2C(O)CCN2c2nc(C)cc(C(F)(F)F)c2C#N)c1 = 41.1%

Q. Query viability, T/C on 883617-216-R-J1-PDC complex spheroid viability for CNCc1ccc(-c2[nH]c3cc(F)cc4c3c2CCNC4=O)cc1 + Cc1cccc(N(C)C(=O)C2C(O)CCN2c2nc(C)cc(C(F)(F)F)c2C#N)c1
A. 86.8%

Q. Query viability, T/C on 883617-216-R-J1-PDC complex spheroid viability for COc1cc2cc(C(=O)CCC(=O)O)sc2cc1OC + Nc1ccc(C#CCN(C(=O)Cc2ncc(C(F)(F)F)cc2C(F)(F)F)c2ccc(F)cc2)nn1
A. 115%

Q. Query viability, T/C on 883617-216-R-J1-PDC complex spheroid viability for C#Cc1c(F)ccc2cc(O)cc(-c3ncc4c(N5CC6CCC(C5)N6)nc(OCC56CCCN5CC(F)C6)nc4c3F)c12 (stereo unspecified) + COC1C(OC(N)=O)C(O)C(Oc2ccc3c(O)c(NC(=O)c4ccc(O)c(CC=C(C)C)c4)c(=O)oc3c2C)OC1(C)C
A. 95.5%

Q. Query viability, T/C on 883617-216-R-J1-PDC complex spheroid viability for COc1ccc([C@@H](O)c2cc(-c3ncnc4cc(N5CCOCC5)ccc34)c(F)cc2Cl)nn1 + Nc1ccc(C#CCN(C(=O)Cc2ncc(C(F)(F)F)cc2C(F)(F)F)c2ccc(F)cc2)nn1
A. 90.8%

Q. Query viability, T/C on 883617-216-R-J1-PDC complex spheroid viability for CCCS(=O)(=O)Nc1ccc(F)c(C(=O)c2c[nH]c3ncc(-c4ccc(Cl)cc4)cc23)c1F + Nc1ccc(C#CCN(C(=O)Cc2ncc(C(F)(F)F)cc2C(F)(F)F)c2ccc(F)cc2)nn1
A. 110%

Q. Query viability, T/C on 883617-216-R-J1-PDC complex spheroid viability for CC1COCCN1c1cc(C2(S(C)(=N)=O)CC2)nc(-c2ccnc3[nH]ccc23)n1 (stereo unspecified) + Nc1ccc(C#CCN(C(=O)Cc2ncc(C(F)(F)F)cc2C(F)(F)F)c2ccc(F)cc2)nn1
A. 97.6%

Q. Query viability, T/C on 883617-216-R-J1-PDC complex spheroid viability for CC1COCCN1c1cc(-c2ccnn2C)c2ccnc(-c3ccn[nH]3)c2n1 (stereo unspecified) + COC1C(OC(N)=O)C(O)C(Oc2ccc3c(O)c(NC(=O)c4ccc(O)c(CC=C(C)C)c4)c(=O)oc3c2C)OC1(C)C
A. 44%

Q. Query viability, T/C on 883617-216-R-J1-PDC complex spheroid viability for COc1cccc2c1C(=O)c1c(O)c3c(c(O)c1C2=O)CC(O)(C(=O)CO)CC3OC1CC(N)C(O)C(C)O1 (stereo unspecified) + COC1C(OC(N)=O)C(O)C(Oc2ccc3c(O)c(NC(=O)c4ccc(O)c(CC=C(C)C)c4)c(=O)oc3c2C)OC1(C)C
A. 50%

Q. Query viability, T/C on 883617-216-R-J1-PDC complex spheroid viability for O=C(c1cc(Cc2n[nH]c(=O)c3ccccc23)ccc1F)N1CCN(C(=O)C2CC2)CC1 + Nc1ccc(C#CCN(C(=O)Cc2ncc(C(F)(F)F)cc2C(F)(F)F)c2ccc(F)cc2)nn1
A. 92.2%

Q. Query viability, T/C on 883617-216-R-J1-PDC complex spheroid viability for COc1cc(C2c3cc4c(cc3C(OC3OC5COC(C)OC5C(O)C3O)C3COC(=O)C23)OCO4)cc(OC)c1O (stereo unspecified) + Nc1ccc(C#CCN(C(=O)Cc2ncc(C(F)(F)F)cc2C(F)(F)F)c2ccc(F)cc2)nn1
A. 81.8%

----------
- System: 883617-216-R-J1-PDC complex spheroid viability
- procedure.summary: Anticancer human tumor 883617-216-R-J1-PDC cell line growth inhibition [POLQ];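 note: spheroids exposed to compounds for seven days before readout; 100% = DMSO vehicle control viability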
- applied.conditions: second compound 1 µM; first compound 0.316 µM; hits give low values
This section presents compounds with their documented viability, T/C values.

1) CCc1cc2c(N3CCc4c(cc(Cn5ccnc5)cc4-c4cn(C)nc4C(F)(F)F)C3=O)cc(C)nc2c(OC)n1 + COC1C(OC(N)=O)C(O)C(Oc2ccc3c(O)c(NC(=O)c4ccc(O)c(CC=C(C)C)c4)c(=O)oc3c2C)OC1(C)C = 96.6%
2) CNCc1ccc(-c2[nH]c3cc(F)cc4c3c2CCNC4=O)cc1 + COC1C(OC(N)=O)C(O)C(Oc2ccc3c(O)c(NC(=O)c4ccc(O)c(CC=C(C)C)c4)c(=O)oc3c2C)OC1(C)C = 103%

Now consider a different compound.
Q. // lookup viability, T/C for CNCc1ccc(-c2[nH]c3cc(F)cc4c3c2CCNC4=O)cc1 + Nc1ccc(C#CCN(C(=O)Cc2ncc(C(F)(F)F)cc2C(F)(F)F)c2ccc(F)cc2)nn1
A. 106%

----------
- Test system: 883617-216-R-J1-PDC complex spheroid viability
- procedure.summary: Anticancer human tumor 883617-216-R-J1-PDC cell line growth inhibition [POLQ];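 note: spheroids exposed to compounds for seven days before readout; 100% = DMSO vehicle control viability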
- applied.conditions: second compound 0.1 µM; first compound 0.0316 µM; hits give low values
test.readout: viability, T/C (%)
Answer with a number only, understood to be in %.

These recorded examples may help you get a feel for the data.
1. CC1COCCN1c1cc(C2(O)CC3CCC(C2)O3)c2cnn(-c3ccn[nH]3)c2n1 (stereo not drawn) + Nc1ccc(C#CCN(C(=O)Cc2ncc(C(F)(F)F)cc2C(F)(F)F)c2ccc(F)cc2)nn1 = 75.2
2. COc1cccc(OCCCN)c1-c1cc(Nc2cnc(C#N)cn2)n[nH]1 + Cc1cccc(N(C)C(=O)C2C(O)CCN2c2nc(C)cc(C(F)(F)F)c2C#N)c1 = 68.5

Q. Query viability, T/C on 883617-216-R-J1-PDC complex spheroid viability for C#Cc1c(F)ccc2cc(O)cc(-c3ncc4c(N5CC6CCC(C5)N6)nc(OCC56CCCN5CC(F)C6)nc4c3F)c12 (stereo not drawn) + Cc1cccc(N(C)C(=O)C2C(O)CCN2c2nc(C)cc(C(F)(F)F)c2C#N)c1
A. 98

----------
- System: 883617-216-R-J1-PDC complex spheroid viability
- procedure.summary: Anticancer human tumor 883617-216-R-J1-PDC cell line growth inhibition [POLQ];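 note: spheroids exposed to compounds for seven days before readout; 100% = DMSO vehicle control viability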
- applied.conditions: second compound 0.316 µM; first compound 10 µM; hits give low values
Mark y only when viability, T/C stays strictly below 50%. Values equal to the cut-off are n.

These recorded examples may help you get a feel for the data.
1. COc1cccc2c1C(=O)c1c(O)c3c(c(O)c1C2=O)CC(O)(C(=O)CO)CC3OC1CC(N)C(O)C(C)O1 (stereo not given) + Cc1cccc(N(C)C(=O)C2C(O)CCN2c2nc(C)cc(C(F)(F)F)c2C#N)c1 = y
2. COc1cccc2c1C(=O)c1c(O)c3c(c(O)c1C2=O)CC(O)(C(=O)CO)CC3OC1CC(N)C(O)C(C)O1 (stereo not given) + Nc1ccc(C#CCN(C(=O)Cc2ncc(C(F)(F)F)cc2C(F)(F)F)c2ccc(F)cc2)nn1 = y
3. CNCc1ccc(-c2[nH]c3cc(F)cc4c3c2CCNC4=O)cc1 + Nc1ccc(C#CCN(C(=O)Cc2ncc(C(F)(F)F)cc2C(F)(F)F)c2ccc(F)cc2)nn1 = n
4. C=CC(=O)N1CCN(c2nc(=O)n(-c3c(C)ccnc3C(C)C)c3nc(-c4c(O)cccc4F)c(F)cc23)C(C)C1 (stereo not given) + Cc1cccc(N(C)C(=O)C2C(O)CCN2c2nc(C)cc(C(F)(F)F)c2C#N)c1 = n

Next up:
Q. Decide: viability, T/C of CCCS(=O)(=O)Nc1ccc(F)c(C(=O)c2c[nH]c3ncc(-c4ccc(Cl)cc4)cc23)c1F + Nc1ccc(C#CCN(C(=O)Cc2ncc(C(F)(F)F)cc2C(F)(F)F)c2ccc(F)cc2)nn1 strictly below 50%?
A. n

----------
- System: 883617-216-R-J1-PDC complex spheroid viability
- procedure.summary: Anticancer human tumor 883617-216-R-J1-PDC cell line growth inhibition [POLQ];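 note: spheroids exposed to compounds for seven days before readout; 100% = DMSO vehicle control viability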
- applied.conditions: second compound 1 µM; first compound 1 µM; hits give low values
test.readout: viability, T/C (%)
Answer with a number only, understood to be in %.

1) CCCS(=O)(=O)Nc1ccc(F)c(C(=O)c2c[nH]c3ncc(-c4ccc(Cl)cc4)cc23)c1F + Cc1cccc(N(C)C(=O)C2C(O)CCN2c2nc(C)cc(C(F)(F)F)c2C#N)c1 = 93.8
2) CC1COCCN1c1cc(-c2ccnn2C)c2ccnc(-c3ccn[nH]3)c2n1 (stereo not drawn) + Cc1cccc(N(C)C(=O)C2C(O)CCN2c2nc(C)cc(C(F)(F)F)c2C#N)c1 = 32.1

Now consider a different molecule.
Q. // lookup viability, T/C for C#Cc1c(F)ccc2cc(O)cc(-c3ncc4c(N5CC6CCC(C5)N6)nc(OCC56CCCN5CC(F)C6)nc4c3F)c12 (stereo not drawn) + COC1C(OC(N)=O)C(O)C(Oc2ccc3c(O)c(NC(=O)c4ccc(O)c(CC=C(C)C)c4)c(=O)oc3c2C)OC1(C)C
A. 91.4
